Attribute: inhibition
Experiment: inhibitors of Chlamydomonas gravitaxis, primary screen, whole organism, Chlamydomonas reinhardtii, WT vs cilia-less mutant, absorbance, 96-well (AID 463189);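 note: 0% = wild type cc124 cells in DMSO and 100% = ciliumless bld1 mutant cells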
Conditions: OD600 absorbance, 2 days, at 10 µM, stronger effect = higher value
OBSERVABLE: inhibition (%)

- C=CCc1c(C)c(C#N)c2nc3ccccc3n2c1N1CCN(C)CC1: 7.97
- Cn1c(-n2c(-c3ccco3)nc3ccccc3c2=O)nc2ccccc21: 9.97
- CCCCc1nc(NCCNC(=O)c2ccco2)c(C#N)c2c1CSC(C)(C)C2: 3.31
- CCOC(=O)CC1=C(C(=O)OCC)C(c2cc(OC)c(OC)cc2OC)C(C#N)=C(N)O1 (stereo not given): 15.6
- CCSc1nnc(N(CCC(=O)O)CCC(=O)O)s1: -5.02

----------
Test: inhibitors of TNFa-induced NFkB p65 translocation, primary screen, imaging, HUVEC, MLSMR starter and 10KST1 sets (AID 438);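 note: compound added about 3h40 before a 20 min TNFalpha stimulation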
Details: HUVEC TNFa-induced p65 nuclear translocation; measured here: nuclei count (cytotoxicity indicator), at 2.08 µM
This listing pairs compounds with measured cell count.
OBSERVABLE: cell count

- COC(=O)COn1c(SCC(=O)OC)nc2ccccc2c1=O: 300
- CCNC(=O)Nn1c(C)nnc1C: 604
- CCOc1ccc(S(=O)(=O)N(C)C)cc1-c1nc2c(C(C)(C)C)nn(C)c2c(=O)[nH]1: 411
- CN1CC=C2C(C#N)=C(N)C(C#N)(C#N)[C@H](c3cccc(Cl)c3)C2C1 (stereo partly specified): 642
- CCN(CC)C(=O)CSC1=C(C#N)C(c2ccco2)C(C(=O)OCCOC)=C(C)N1 (stereo unspecified): 393
- O=S1CCCSC1c1cccnc1 (stereo unspecified): 524
- COc1ccc(C(=O)N/C(N)=N/c2nc3ccccc3o2)cc1: 557
- CCN1CCCC1Cn1cnc2c([nH]c3ccc(C)cc32)c1=O (stereo unspecified): 319
- COc1ccccc1N1CCN(C2CCN(C(=O)c3cccs3)CC2)CC1: 390
- C=CCN(C(=O)CCC(=O)O)C1CC(=O)N(c2ccc(OCCC)cc2)C1=O (stereo unspecified): 454
- Cc1cc(=O)[nH]c(SCC(=O)c2ccccc2)c1C#N: 391

----------
Test: inhibitors of E-selectin induction by TNFa, primary screen, imaging, HUVEC, immunofluorescence, MLSMR starter and 10KST1 sets (AID 487);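 note: 100% = median nuclei count of all wells on the same plate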
Settings: HUVEC TNFalpha-induced E-selectin immunofluorescence imaging, at 2 µM; measured here: cell number, toxicity
OBSERVABLE: nuclei count (%)

* CCOC(=O)Cn1c(SC)nc2sc3c(c2c1=O)CC(C)(C)OC3 | 179
* O=C(Nc1ccc(Cl)cn1)C1CCCN1S(=O)(=O)c1ccccc1 (stereo not drawn) | 154
* N#CCCN(CCC#N)c1nnc(-c2ccccc2)s1 | 159
* CSc1nnc2n(C3CCCCC3)c(=O)c3c4c(sc3n12)CCCC4 | 111
* CC(C)NCC(O)COc1ccc(CCOCC2CC2)cc1 (stereo not drawn) | 119
* CC(C)NC(=O)N1CCOCCOCCN(C(=O)NC(C)C)CCOCCOCC1 | 144
* CCN(CC)CCCn1c(C)cc2c(c1=O)C(c1ccc(OC)c(OC)c1OC)C(C#N)=C(N)O2 (stereo not drawn) | 134
* O=S(=O)(c1ccc2ccccc2c1)N(CC(O)CN1CCOCC1)c1ccccc1 (stereo not drawn) | 105
* CN1c2ccccc2N(C)C1c1c(O)ccc2ccccc12 | 180
* CCOC(=O)C1CCN(c2nc3ccccc3nc2C(C#N)C(=O)OCCOC)CC1 (stereo not drawn) | 120
* C[C@]12CC[C@@H]3c4ccc(OC(=O)c5ccccc5)cc4CC[C@H]3[C@@H]1CC[C@@H]2O | 133
* CCOC(=O)CCc1c(C)c(C#N)c2nc3ccccc3n2c1-n1ccnc1C | 138
* C[N+](C)(C)CCOP(=O)([O-])OC[C@H](O)CO | 109
* CCOC(=O)N1CCN(C(=O)c2cn(CC)c3cc(N4CCN(C)CC4)c(F)cc3c2=O)CC1 | 121
* CCOc1cc(C2Nc3ccccc3C(=O)N2c2ccccc2OC)ccc1O (stereo not drawn) | 124
* CC(NC(=O)Nc1nccs1)(C(F)(F)F)C(F)(F)F | 107
* O=C(COc1ccccc1)Nc1ccc(-c2nnc(-c3ccco3)o2)cc1 | 102
* COc1ccc(CCNC2CC(C)N(C)CC2C)cc1OC (stereo not drawn) | 170

Taken from PubChem BioAssay.
